tested on: Candida albicans; test: Antimicrobial activity against Candida albicans ATCC 14053 after 17 to 20 hrs by serial dilution method; assay type: functional
Where a SMILES comes first, the peptide text is derived from it. The star is where a group is joined. Stearoyl = CCCCCCCCCCCCCCCCCC(=O)*; Myristoyl = CCCCCCCCCCCCCC(=O)*; Decanoyl = CCCCCCCCCC(=O)*
Task for the reader: assign each of the following compounds its reported MIC.

CCCCCCCCCCCCCC(=O)N[C@@H](CCCNC(=N)N)C(=O)N[C@H](C(=O)N[C@@H](CCCCN)C(=O)N[C@@H](Cc1c[nH]c2ccccc12)C(=O)N[C@@H](CCCCN)C(N)=O)[C@@H](C)CC (Myristoyl-RIKWK-NH2) : > 62.5 µg/mL

Hi! Can you tell me MIC for each of these compounds?
1. CCCCCCCCCC(=O)N[C@@H](CCCCN)C(=O)N[C@@H](CCCCN)C(=O)N[C@@H](Cc1c[nH]c2ccccc12)C(=O)N[C@@H](CCCCN)C(N)=O (Decanoyl-KKWK-NH2)
2. CCCCCCCCCCCCCCCCCC(=O)N[C@@H](CCCNC(=N)N)C(=O)N[C@@H](CCCCN)C(=O)N[C@@H](Cc1c[nH]c2ccccc12)C(=O)N[C@@H](Cc1c[nH]c2ccccc12)C(=O)N[C@@H](CCCCN)C(N)=O (Stearoyl-RKWWK-NH2)
3. CCCCCCCCCC(=O)N[C@@H](CCCCN)C(=O)N[C@@H](Cc1c[nH]c2ccccc12)C(=O)N[C@@H](CCCCN)C(=O)N[C@@H](Cc1c[nH]c2ccccc12)C(N)=O (Decanoyl-KWKW-NH2)

Reply text:
1. > 62.5 µg/mL
2. > 62.5 µg/mL
3. 31.2 µg/mL

Per the records, this compound ( CCCCCCCCCCCCCCCCCC(=O)N[C@@H](CCCCN)C(=O)N[C@@H](Cc1c[nH]c2ccccc12)C(=O)N[C@@H](Cc1c[nH]c2ccccc12)C(=O)N[C@@H](CCCCN)C(N)=O (Stearoyl-KWWK-NH2) ) has MIC equal to > 62.5 µg/mL
